# method notes: Rat oral bioavailability
# Format: in vivo
# condition: Sprague-Dawley, plasma, fasted male SD rats, IV 0.25 mg/kg (20% MEOP/80% water), PO 1 mg/kg (1% NaCMC/0.5% SLS/0.05% antifoam), based on AUC0-∞
Counter-ions that a name gives are not always drawn.
parameter measured: bioavailability (%)
Give bare numbers, in %.

*Q* Recall and state the measured bioavailability for CC(C)(N[C@@H]1C[C@H](c2cccc(OC(F)(F)F)c2)N(c2ccc(C#N)cc2)C1=O)c1cccc(C(F)(F)F)n1 [Example 27HCl Salt] .
*A* 58

###

# method notes: Rat oral bioavailability
# Assay type: in vivo
# condition: Sprague-Dawley, plasma, fasted male SD rats, IV 0.25 mg/kg (20% Pharmasolve, 10% HPBCD, pH 3), PO 1 mg/kg (1% CMC, 0.5% SLS, 0.5% AF), mean±s.d, n=3, based on AUC0-∞
Counter-ions that a name gives are not always drawn.
parameter measured: bioavailability (%)
Numbers only, in %.

*Q* Could you please provide reported bioavailability for CC(C)(N[C@@H]1C[C@H](c2cccc(C(F)(F)F)c2)N(c2ccc(OC(F)(F)F)cc2)C1=O)c1cccc(C(F)(F)F)n1 [28 HCl salt] ? Thanks!
*A* 40

###

# system under test: hCB-2 (Homo sapiens)
# Sequence (P34972 whole entry): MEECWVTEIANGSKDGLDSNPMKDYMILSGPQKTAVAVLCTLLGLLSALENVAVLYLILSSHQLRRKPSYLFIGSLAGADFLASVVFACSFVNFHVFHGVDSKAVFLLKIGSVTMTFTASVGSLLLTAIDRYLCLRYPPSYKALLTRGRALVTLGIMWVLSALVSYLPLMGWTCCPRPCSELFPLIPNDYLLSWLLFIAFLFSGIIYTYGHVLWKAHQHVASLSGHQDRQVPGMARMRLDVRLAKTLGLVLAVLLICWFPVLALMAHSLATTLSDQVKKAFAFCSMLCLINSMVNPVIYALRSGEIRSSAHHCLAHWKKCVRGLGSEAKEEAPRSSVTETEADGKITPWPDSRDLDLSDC
# method notes: hCB2-Sf9 agonist mode SPA GTP-γ-35S binding assay
# condition: read-out: hCB-2 SPA GTPγS Sf9 Membrane Agonist Relative EC50
# Description: Compounds of the present invention may be tested for functional activity at the CB-1 and CB-2 receptors in both agonist and antagonist modes using SPA (Scintillation Proximity Assay) based GTP-γ-^35S binding assays. […] GTP-γ^35S binding for the antagonist assay may be measured in a 96 well format using a modification of an antibody capture technique previously described. […] The CB-1 receptor agonist activity may be measured using a whole membrane capture technique using hCB1-CHO membranes. […]
Where a name gives a salt, the structure may show the parent alone.
I'd be grateful if you could share measured EC50 for these entries.

# compound, EC50
records = [
    ("CC(C)(N[C@@H]1C[C@H](c2cccc(OC(F)(F)F)c2)N(c2ccc(C#N)cc2)C1=O)c1cccc(C(F)(F)F)n1 [27 Tosylate salt]", "> 100 µM"),
]

*Q* Provide EC50, recorded with hCB-2 (Homo sapiens), of CC(C)(N[C@@H]1C[C@H](c2cccc(C(F)(F)F)c2)N(c2ccc(OC(F)(F)F)cc2)C1=O)c1cccc(C(F)(F)F)n1
*A* > 100 µM
